- Assay Protocol: qHTS Assay for Lipid Storage Modulators (AID 1519)
- Condition Label: Drosophila S3 cells, BODIPY lipid droplet/cell ratio, laser cytometry; measured here: cell count channel max response; cells loaded with oleic acid
- Experimental: NIH Molecular Libraries Probe Production Centers Network [MLPCN] NIH Chemical Genomics Center [NCGC] Assay Submitter (PI): Beller, Mathias; Max-Planck-Institut fur Biophysikalische Chemie […] We dispensed 4 uL of cells at 1.25 x 10^6 cells/mL into LoBase Aurora COC 1,536-well plates (black walled, clear bottom) with a bottle-valve solenoid-based dispenser (Aurora) to obtain 5,000 cells/well. […] The ratio of the total intensity in PMT channel 1 over total intensity of channel 3 was also calculated. […]
Inconclusive results are not listed.
Readout Label: max response (%)
Supply the numeric figure in %, leaving out any unit text.

As a guide, the following entries are already answered.
COc1cccc(-c2nc(NC3CCNCC3)c3ccccc3n2)c1: 12.9
C[C@@]12CCC(=O)C=C1CC[C@H]1[C@H]3CC[C@](O)(C(=O)CO)[C@]3(C)CC(=O)[C@@H]12: -0.115
c1ccc(C(c2ccccc2)N2CCC3(CCNCC3)CC2)cc1: 27.4
Clc1ccccc1-c1ccc2ncnc(NC3CCNCC3)c2c1: 0.483
COc1ccccc1CNc1ncnc2ccc(-c3ccccc3OC)cc12: -10.4

Entry under review: COc1ncc2nc(-c3cccs3)c(=O)n(C)c2n1 . Reported max response?
19.4

Entry under review: O=c1c(-c2ccc(F)cc2)nc2cnc(N3CCOCC3)nc2n1C1CC1 . Reported max response?
17.4

Entry under review: CN1CC[C@@]2(CCCN(S(=O)(=O)c3ccccc3)C2)C1 . Reported max response?
6.91

Entry under review: N[C@H](C(=O)O)C(O)C(O)C(O)CO (stereo partly specified) . Reported max response?
-0.517

Entry under review: COCC(=O)N1CCC2(CC1)CN(c1ccncc1)C2 . Reported max response?
4.76

Entry under review: COc1cc(O)c(C(=O)/C=C/c2ccc(OC)c(O)c2)c(OC)c1 . Reported max response?
-3.92

---

- Assay Protocol: Stat Signaling Pathway (AID 446);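 also: ME-180 cervical cancer cells given 40 pM IL-6 alongside compound; SIE-controlled beta-lactamase reporter measured as 460/530 nm FRET emission ratio; % is scaled to controls: 0 for no effect and ±100 for the full control effect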
- Condition Label: ME-180 SIE beta-lactamase reporter, IL-6 stimulated, 5 h; at 7.69 µM (top of the series) unless noted
Records with an inconclusive call do not appear. Activity calls are given as the source filed them. The call rests on the fitted dose curve; in most records, active means well fitted curve in either direction with a large enough effect (not every such curve was filed as active); inconclusive means small, poorly fitted or top-dose-only effect, or another doubt; inactive means flat fitted curve, though single readings scatter.
Catalogue of molecules with associated activity, negative = inhibition

As a guide, the following entries are already answered.
COC(=O)N1CCC2(CCN(C(=O)Nc3ccc(OC)cc3)CC2)CC1: 3.42% (inactive)
CS(=O)(=O)Nc1cccc(-c2cc(Nc3ccccc3)ncn2)c1: 3.87% (inactive)

We next turn to a different molecule, shown below.
Entry under review: CN(C)c1ccc(-c2cncnc2NCc2cccnc2)cc1 . Reported activity, negative = inhibition?
-10% (inactive)

---

- Target Or Test System: Cytochrome P450 3A4 (Homo sapiens)
- Assay Protocol: qHTS Assay for Inhibitors and Substrates of Cytochrome P450 3A4 (AID 884); also: nearly all actives have a fitted effect of over 50% in size
- Condition Label: recombinant CYP3A4, Luciferin-PPXE luminescence; series mostly up to 57.1 µM
Results filed as inconclusive are left out. Activity calls are given as the source filed them. The call rests on the fitted dose curve; in most records, active means well fitted inhibition curve with a large enough effect; inconclusive means small, poorly fitted or top-dose-only effect; inactive means no such curve, though single readings can be large or run the other way.
Pick one: active, inactive

Illustrative cases are given below, each with its answer.
Cc1nc2cnc(Nc3ccccc3)nc2n(Cc2cccs2)c1=O: active
Cc1ccccc1-c1ccc2ncnc(NCc3cccs3)c2c1: active
COc1ccccc1CNc1ccnc(-c2c(C)noc2C)n1: active

Entry CS(=O)(=O)Nc1cccc(-c2nccc(-n3ccnc3)n2)c1 : call = ?
active

Entry COc1cc2c(cc1OC)C(=O)Cc1ccc3c(c1CN(C)CC2)OCO3 : call = ?
inactive

Entry c1ccc(CNc2ncncc2-c2ccoc2)cc1 : call = ?
active

Entry C=CCc1ccc(OC(=O)c2ccccc2)c(OC)c1 : call = ?
active

Entry Cc1cccc(CNc2ncncc2-c2ccccc2C(F)(F)F)c1 : call = ?
active

Entry O=C(Cc1cccs1)NC1C(=O)N2C(C(=O)[O-])=C(C[n+]3ccccc3)CSC12 (configuration not stated) : call = ?
inactive

Entry COc1ccccc1CN1CCCC2(CCN(C(=O)c3ccncc3)CC2)C1 : call = ?
active

Entry Cc1cnc(CNc2cc(-c3ccccc3C)ncn2)cn1 : call = ?
inactive

Entry COc1ccccc1-c1cc(Nc2ccn[nH]2)ncn1 : call = ?
active

Entry C=C[C@](C)(O)CCC1C(=C)CC(OC(C)=O)C2C(C)(C)CCCC12C (some centres not stated) : call = ?
active

---

- Assay Protocol: AP1 Signaling Pathway (AID 357);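 also: ME-180 reporter cells stimulated with EGF at its EC50 level; % is scaled to controls: 0 for no effect and ±100 for the full control effect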
- Condition Label: ME-180 AP-1-bla reporter, EGF-induced, beta-lactamase ratio, 5 h; at 7.69 µM (top of the series) unless noted
Inconclusive results are not listed.
Readout Label: activity change, negative = inhibition (%)
Supply the numeric figure in %, leaving out any unit text.

Entry under review: COc1ccc(Oc2ncc3nc(C)c(=O)n(CCc4ccccc4)c3n2)cc1 . Reported activity change, negative = inhibition?
18.2

Entry under review: COCCn1c(=O)c(-c2ccc(Cl)cc2)nc2cnc(Oc3ccccc3)nc21 . Reported activity change, negative = inhibition?
-8.55

Entry under review: O=C(c1ccco1)N1CCC2(CC1)CN(c1ncccn1)C2 . Reported activity change, negative = inhibition?
-3.83

Entry under review: COc1ccc(-c2nc3cnc(N(C)C)nc3n(C[C@H]3CCCO3)c2=O)cc1 . Reported activity change, negative = inhibition?
1.23

Entry under review: Cc1ccccc1-c1cncnc1N1CCN(C)CC1 . Reported activity change, negative = inhibition?
7.79

Entry under review: CN1CCN(c2ncc3nc(-c4cccc(C#N)c4)c(=O)n(C[C@H]4CCCO4)c3n2)CC1 . Reported activity change, negative = inhibition?
27.9

---

- Assay Protocol: qHTS Assay for Lipid Storage Modulators (AID 1519)
- Condition Label: Drosophila S3 cells, BODIPY lipid droplet/cell ratio, laser cytometry; measured here: lipid channel max response; cells loaded with oleic acid
Records with an inconclusive call do not appear.
Readout Label: max response (%)
Supply the numeric figure in %, leaving out any unit text.

CN1CCN(c2ncc3nc(-c4ccc(Cl)cc4)c(=O)n(Cc4ccc(F)cc4)c3n2)CC1: 10.5
COc1cccc(Cn2c(=O)cnc3cnc(N4CCN(C)CC4)nc32)c1: 22.6
O=C(Nc1ccccc1)N1CCCC2(CCN(S(=O)(=O)c3ccccc3)CC2)C1: 22

Entry under review: COC(=O)N1CCC2(CCCN(Cc3ccc(C#N)cc3)C2)CC1 . Reported max response?
12.9

Entry under review: CC(C)CN1CC2(CCN(C(=O)c3csnn3)CC2)C1 . Reported max response?
-0.0505

Entry under review: Cc1cnc(CNc2ncnc3ccc(-c4ccccc4CN(C)C)cc23)cn1 . Reported max response?
15.6

Entry under review: COc1ccc(NC(=O)N2CC3(CCNCC3)C2)cc1 . Reported max response?
23

Entry under review: CC(C)CN1CC2(CCN(C(=O)c3ccco3)CC2)C1 . Reported max response?
7.7

Entry under review: CC(=O)N1CCC2(CCCN(C(=O)Nc3cccc(C#N)c3)C2)CC1 . Reported max response?
15.6

Entry under review: CN(C)CCCO[C@H]1C([C@H](O)CO)O[C@@H]2OC(C)(C)O[C@@H]21 (stereo partly drawn) . Reported max response?
24

Entry under review: O=c1c(O)c(-c2ccc(O)cc2)oc2ccccc12 . Reported max response?
-1

Entry under review: CC(=O)Oc1ccc2c(c1)CCC1C2CC[C@]2(C)C(OC(C)=O)CCC12 (stereo partly drawn) . Reported max response?
4.34

Entry under review: CN1CCN(c2ncnc3ccc(-c4ccoc4)cc23)CC1 . Reported max response?
2.82

Entry under review: O=C1C=C(O)c2ccccc2C1=O . Reported max response?
-2.25

Entry under review: COc1ccc(C(=O)N2CCC3(CC2)CN(CC(C)C)C3)cc1 . Reported max response?
21.1

---

Catalogue of molecules with associated activity, negative = inhibition
- Assay Protocol: Stat Signaling Pathway (AID 446);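 also: ME-180 cervical cancer cells given 40 pM IL-6 alongside compound; SIE-controlled beta-lactamase reporter measured as 460/530 nm FRET emission ratio; % is scaled to controls: 0 for no effect and ±100 for the full control effect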
- Condition Label: ME-180 (cervical carcinoma) SIE beta-lactamase reporter, IL-6 stimulated, 5 h; at 7.69 µM (top of the series) unless noted
Records with an inconclusive call do not appear.
Supply the numeric figure in %, leaving out any unit text.

COc1ccccc1CNc1ncnc2ccc(-c3ccc4c(c3)OCO4)cc12: -7.21
COc1ccccc1CNc1ncncc1-c1ccc(C(=O)N(C)C)cc1: 9.05
COCCNc1ncnc2ccc(-c3ccccc3CN(C)C)cc12: 4.88
FC(F)(F)c1ccccc1-c1nccc(-n2ccnc2)n1: 0.859
c1csc(CNc2nc(-c3ccc4c(c3)OCO4)nc3ccccc23)c1: -13.1

Entry under review: N#Cc1cccc(-c2cncnc2NCc2cccnc2)c1 . Reported activity, negative = inhibition?
6.63

Entry under review: COc1ncc2nc(-c3ccc(F)cc3)c(=O)n(C[C@H]3CCCO3)c2n1 . Reported activity, negative = inhibition?
-1.31

Entry under review: COC(=O)N1CCC2(CCN(C(=O)Nc3cccc(F)c3)CC2)CC1 . Reported activity, negative = inhibition?
22.8

Entry under review: O=C(Nc1ccccc1)N1CC2(CCN(S(=O)(=O)c3ccccc3)CC2)C1 . Reported activity, negative = inhibition?
-2.14

Entry under review: COc1cccc(-c2nccc(NCc3cccnc3)n2)c1 . Reported activity, negative = inhibition?
-2.24

Entry under review: COc1ccccc1CNc1ccnc(-c2ccc(N(C)C)cc2)n1 . Reported activity, negative = inhibition?
-10.8
